Tested on: M14 melanoma
Assay Overview: NCI-60 one-dose screen, 48 h
Protocol Conditions: 10 µM unless noted
Compounds without any hit were thinned out: in the full panel of roughly 83,000, 20% have a hit. Active and inactive are the calls of the source. How the source made its calls: active means growth percent below 10; inactive means the rest.
Outcomes: active, inactive

compound=Nc1ccc(S(=O)(=O)F)cc1 classification=inactive
compound=CSc1cc(/C=C(\C)[C@@H]2C[C@@H]3O[C@]3(C)CCC[C@H](C)[C@H](O)[C@@H](C)C(=O)C(C)(C)[C@@H](O)CC(=O)O2)n(CCNC(=O)OC(C)(C)C)n1 classification=inactive
compound="CN1CCC2(CC1)C(C#N)C(=O)NC(=O)C2C#N (stereo not drawn)" classification=inactive
compound=CCN1C(=O)CC(=O)N(CC)C1=S classification=inactive
compound=O=C=Nc1ccc(Br)cc1 classification=inactive
compound=COC(=O)CCP(CCC(=O)OC)c1ccccc1 classification=inactive
compound=CO[C@H]1[C@H](O[C@@H]2C[C@@H]3C/C=C/C(=O)O[C@@H](CO)C[C@H](O)[C@@H]4C[C@H](C)[C@H](C/C=C\C=C\[C@H](C)C[C@H](C2)O3)O4)O[C@@H](C)[C@H](O)[C@H]1O classification=inactive
compound=O=c1c2ccccc2nc(-c2ccccc2Cl)n1-c1nnc(C(F)(F)F)s1 classification=inactive
compound="CC1=CC(=O)CCC12CCOC2=O (stereo not drawn)" classification=inactive
compound=CC[C@H](C)[C@H](NC(=O)C12CC(NC)(C1)C2)C(=O)N(C)[C@H](C[C@@H](OC(C)=O)c1nc(C(=O)N[C@@H](Cc2ccccc2)C[C@H](C)C(=O)OC)cs1)C(C)C classification=active
compound=C[N+]1(CC#CC[N+]2(C)CCCC2)CCCC1 classification=inactive
compound=Cc1ccc(C(=O)O[C@H](C(=O)O)[C@H](OC(=O)c2ccc(C)cc2)C(=O)O)cc1 classification=inactive
compound=O=C(NC(Cl)=C(Cl)Cl)P(=O)(c1ccccc1)c1ccccc1 classification=inactive
compound=Cn1cc(-c2csc(-c3cn(CCCCN4CCOCC4)c4ccc(F)cc34)n2)c2cccnc21 classification=active
compound=Cc1cc[c-]cc1.Fc1c[c-]c(-c2ccccn2)c(F)c1.[Pt+2].c1ccc([PH+](c2ccccc2)c2ccccn2)cc1 classification=inactive
compound=C[C@]12CC[C@@H](OC(=O)N(CCCl)N=O)C[C@@H]1CC[C@@H]1[C@@H]2CC[C@]2(C)C(=O)CC[C@@H]12 classification=inactive
compound="CCC(=O)C(CC(C)N1CCCCCC1)(c1ccccc1)c1ccccc1 (stereo not drawn)" classification=inactive
compound=O=C(O)c1ccccc1N(CCO)CCCl classification=inactive
compound=CN1CCN(c2ccc(Cl)cc2)CC1 classification=inactive
compound="COc1cc(C2C3=C(CCCC3=O)N(CCO)c3cc4c(cc32)CCC4)cc(OC)c1OC (stereo not drawn)" classification=inactive
compound="O=C1CCCCC1CN1CCCCC1 (stereo not drawn)" classification=inactive
compound=O=[N+]([O-])c1ccc2scc3c4ccccc4nc-3c2c1 classification=active
compound=C[C@]12CC[C@H](O)C[C@@H]1CC[C@@H]1[C@@H]2CC[C@]2(C)OC(=O)CC[C@@H]12 classification=inactive
compound=C[C@]12C[C@H](c3ccoc3)OC(=O)[C@H]1CC[C@@]1(C)[C@@H]2[C@H]2C=C[C@]1(O)C(=O)O2 classification=inactive
compound=Cc1ccc(NC2=N[C@]34CC(=O)CC[C@]3(C)[C@H]3CC[C@]5(C)C(=O)CC[C@H]5[C@@H]3C[C@@H]4S2)c(C)c1 classification=inactive
compound=C[C@]12CC[C@H]3[C@@H](CC=C4c5nc(-c6ccc(Br)cc6)sc5CC[C@@]43C)[C@@H]1CC[C@@H]2O classification=inactive
compound="COCC1OC2OC3C(COC)OC(OC4C(COC)OC(OC5C(COC)OC(OC6C(COC)OC(OC7C(COC)OC(OC8C(COC)OC(OC1C(O)C2O)C(O)C8O)C(O)C7O)C(O)C6O)C(O)C5O)C(O)C4O)C(O)C3O (stereo not drawn) (tested in a mixture with another compound)" classification=inactive
compound="C=CCOC(=O)C(Br)CC (stereo not drawn)" classification=inactive
compound=Oc1ccccc1C=NCCN=Cc1ccccc1O.[Fe] classification=inactive
compound=CNC(=O)O/N=C(\SC)C(=O)N(C)C classification=inactive
compound=O=NN1CCCCC1 classification=inactive
compound=CCC1(CCSC#N)C(=O)NC(=O)NC1=O classification=inactive
compound=CC[C@H](C)[C@H](NC(=O)[C@H]1CCCCN1C)C(=O)N(C)[C@H](C(=O)NC12CC(C(=O)N[C@@H](Cc3ccccc3)C[C@H](C)C(=O)OC)(C1)C2)C(C)C classification=inactive
compound=NC(N)=NC(N)=Nc1ccc(Cl)cc1 classification=inactive
compound=C[C@]12CCc3nc(-c4ccc(O)c(O)c4)sc3C1=CC[C@@H]1[C@@H]2CC[C@]2(C)C(=O)CC[C@@H]12 classification=inactive
compound="NC1CN2CCC1CC2 (stereo not drawn)" classification=inactive
compound="O=C(Cc1ccccc1)NC(O)C(Cl)(Cl)Cl (stereo not drawn)" classification=inactive
compound=Cc1ccc(S(=O)(=O)n2cc([C@@]3(O)C[C@H](CSC#N)OC3=O)c3ccccc32)cc1 classification=inactive

The values you see were collected from PubChem BioAssay (NCI).
